system: pathogenic bacteria causing bacterial wilt in cassava; assay: organism not typed; format: cell-based; conditions: read-out: inhibitory rate
Listed next: entries and their corresponding inhibition at 1 ppm.

Some solved entries appear below for comparison.
compound_structure=CCOc1cc2c(cc1F)c(=O)c(C(=O)OCCOC)cn2C1CC1 metric_name="inhibition at 1 ppm" result="≥ 90%"
compound_structure=O=C(OCCO)c1cn(C2CC2)c2cc(N3CCOCC3)c(F)cc2c1=O metric_name="inhibition at 1 ppm" result="≥ 90%"
compound_structure=COCCOC(=O)c1cn(C2CC2)c2cc(SCC(F)(F)F)c(F)cc2c1=O metric_name="inhibition at 1 ppm" result="≥ 90%"

Next up:
Task item: So what does the record say about inhibition at 1 ppm for `COCCOC(=O)c1cn(C2CC2)c2cc(OC)ccc2c1=O` ?
Reply: ≥ 80%

###

Listed next: entries and their corresponding inhibition at 5 ppm.
system: pathogenic bacteria causing black rot in Chinese cabbages; assay: In vitro bactericidal activity, black rot in Chinese cabbages; format: cell-based, xanthomonas; conditions: Xanthomonas, dosage 5 ppm, read-out: inhibitory rate

Task item: So what does the record say about inhibition at 5 ppm for `O=C(OCCO)c1cn(C2CC2)c2cc(Cl)c(F)cc2c1=O` ?
Reply: ≥ 90%

Task item: So what does the record say about inhibition at 5 ppm for `CCN(CC)c1cc2c(cc1F)c(=O)c(C(=O)OCCOC)cn2C1CC1` ?
Reply: ≥ 90%

Task item: So what does the record say about inhibition at 5 ppm for `COCCOC(=O)c1cn(C2CC2)c2cc(SCC(F)(F)F)c(F)cc2c1=O` ?
Reply: ≥ 90%

###

Listed next: entries and their corresponding inhibition at 5 ppm.
System: pathogenic bacteria causing stem rot in sweet potatoes
Assay: In vitro bactericidal activity, stem rot in sweet potatoes
Assay type: cell-based, dikia
Conditions: dosage 5 ppm, read-out: inhibitory rate
Description: Under aseptic conditions, equal amounts of NB culture medium were added to test tubes, and fixed amounts of the sample solutions were pipetted into the above test tubes in an ascending order of concentrations, respectively. The mixtures were well mixed and added with equal amounts of a bacterial suspension in log phase. Each step of the procedure was repeated 4 times. […] The OD values were measured when the bacteria were in log phase.

compound_structure=CCOCCOC(=O)c1cn(C2CC2)c2cc(Cl)c(F)cc2c1=O result="≥ 90%"
compound_structure=COCCOC(=O)c1cn(C2CC2)c2ccc(F)cc2c1=O result="≥ 90%"

Task item: So what does the record say about inhibition at 5 ppm for `O=C(OCCCO)c1cn(C2CC2)c2cc(OCC(F)(F)F)c(F)cc2c1=O` ?
Reply: ≥ 90%

Task item: So what does the record say about inhibition at 5 ppm for `O=C(OCCO)c1cn(C2CC2)c2cc(OCC(F)(F)F)ccc2c1=O` ?
Reply: ≥ 90%

Task item: So what does the record say about inhibition at 5 ppm for `COCCOC(=O)c1cn(C2CC2)c2ccc(Cl)cc2c1=O` ?
Reply: ≥ 90%

Task item: So what does the record say about inhibition at 5 ppm for `COCCCOC(=O)c1cn(C2CC2)c2cc(OC)c(F)cc2c1=O` ?
Reply: ≥ 90%

Task item: So what does the record say about inhibition at 5 ppm for `COCCOC(=O)c1cn(C2CC2)c2cc(SC)c(F)cc2c1=O` ?
Reply: ≥ 90%

Task item: So what does the record say about inhibition at 5 ppm for `O=C(OCCCCO)c1cn(C2CC2)c2cc(Cl)c(F)cc2c1=O` ?
Reply: ≥ 90%

Task item: So what does the record say about inhibition at 5 ppm for `CCOCCOC(=O)c1cn(C2CC2)c2cc(OCC(F)(F)F)c(F)cc2c1=O` ?
Reply: ≥ 90%
